Listed next: entries and their corresponding pIC50.
- Test system: Aβtotal
- experiment-description: Screening for γ-secretase-modulating activity, Method 2: Aβtotal Alphalisa on SKNBE2 cell supernatant
- Format: cell-based
- test-context: Method 2, Table 3c, SKNBE2 cells carrying APP 695 wild type, overnight incubation
pIC50: −log10 of the molar value.

- smiles-structure: "COc1nc(Nc2cccc3c2nc(-c2ccc(F)cc2)n3C)ccc1-n1cnc(C)n1"
  comparison-symbol: "<"
  pIC50: 5.00
- smiles-structure: "COc1nc(Nc2cc(C)nc3c2nc(-c2ccc(F)cc2)n3C)ccc1-n1cnc(C)c1"
  comparison-symbol: "<"
  pIC50: 5.00
- smiles-structure: "COc1nc(Nc2nc(C)cc3c2nc(-c2ccc(F)cc2)n3C)ccc1-n1cnc(C)c1"
  comparison-symbol: "="
  pIC50: 5.31
- smiles-structure: "COc1nc(Nc2cccc3c2nc(-c2ccc(F)cc2F)n3C)ccc1-n1cnc(C)c1"
  comparison-symbol: "<"
  pIC50: 5.00
- smiles-structure: "COc1nc(Nc2cccc3c2nc(-c2ccc(F)cc2)n3C(C)C)ccc1-n1cnc(C)c1"
  comparison-symbol: "="
  pIC50: 5.18

###

- Test system: Aβtotal
- experiment-description: Screening for γ-secretase-modulating activity, Method 1: Aβtotal sandwich ELISA on SKNBE2 cell media
- Assay type: cell-based
- test-context: Table 3a; SKNBE2 cells carrying APP 695 wild type, 18 hours; XLfit, top/bottom fixed to 100 and 0, hill slope 1
Listed next: entries and their corresponding IC50.

- smiles-structure: "CCn1c(CCC(F)(F)F)nc2c(Nc3ccc(-n4cnc(C)c4)c(OC)c3)cccc21"
  IC50: "> 1 µM"
- smiles-structure: "COc1nc(Nc2cc(F)cc3c2nc(-c2ccc(F)cc2)n3C)ccc1-n1cnc(C)c1"
  IC50: "> 10 µM"
- smiles-structure: "COc1cc(Nc2nccc3c2nc(-c2ccc(F)cc2)n3C)ccc1-n1cnc(C)n1"
  IC50: "> 10 µM"
- smiles-structure: "COc1cccc(-c2nc3c(Nc4ccc(-n5cnc(C)n5)cc4)cccc3n2C(C)C)c1"
  IC50: "> 3 µM"
- smiles-structure: "COc1ccc(-c2nc3c(Nc4ccc(-n5cnc(C)c5)c(OC)c4)cccc3n2C)cc1"
  IC50: "> 1 µM"
- smiles-structure: "COc1cc(Nc2cccc3c2nc(-c2ccc(F)cc2)n3C)ccc1-n1ccnc1"
  IC50: "> 1 µM"
- smiles-structure: "COc1cc(Nc2cccc3c2nc(C2CCCCC2)n3C)ccc1-n1cnc(C)c1"
  IC50: "> 3 µM"
- smiles-structure: "Cc1ncn(-c2ccc(Nc3cccc4c3nc(CC(C)C)n4CC(C)C)cc2)n1"
  IC50: "> 10 µM"
- smiles-structure: "COc1cc(Nc2cccc3c2nc(-c2ccc(F)cc2)n3Cc2ccccc2)ccc1-n1cnc(C)c1"
  IC50: "> 10 µM"
- smiles-structure: "COCCCc1nc2c(Nc3ccc(-n4cnc(C)c4)c(OC)c3)cccc2n1C"
  IC50: "> 10 µM"

###

- Tested on: Aβtotal
- experiment-description: Screening for γ-secretase-modulating activity, Method 2: Aβtotal Alphalisa on SKNBE2 cell supernatant
- Assay type: cell-based
- test-context: Method 2, Table 3c, SKNBE2 cells carrying APP 695 wild type, overnight incubation
pIC50: −log10 of the molar value.
Listed next: entries and their corresponding pIC50.

- smiles-structure: "COc1cc(Nc2nc(C)cc3c2nc(-c2ccc(F)cc2)n3C)ccc1-n1cnc(C)n1"
  pIC50: "< 5.00"
- smiles-structure: "Cc1cn(-c2ccc(Nc3ccnc4c3nc(-c3ccc(F)cc3)n4C)cc2F)cn1"
  pIC50: "< 5.00"
- smiles-structure: "Cc1cn(-c2ccc(Nc3nccc4c3nc(-c3ccc(F)cc3)n4C)cc2F)cn1"
  pIC50: "< 5.00"

All figures here come from patent US8772504B2.
